Conditions: in acetonitrile, 313.15 K
Readout Label: solubility (mole fraction)
// return a plain number; no unit text

Endpoint output: solubility (mole fraction) of CCOC(=O)CCC(=O)O[C@H]1[C@H](O[C@@H]2[C@@H](C)[C@H](O[C@H]3C[C@@](C)(OC)[C@@H](O)[C@H](C)O3)[C@@H](C)C(=O)O[C@H](CC)[C@@](C)(O)[C@H](O)[C@@H](C)C(=O)[C@H](C)C[C@@]2(C)O)O[C@H](C)C[C@@H]1N(C)C . Value? 0.00703
